Entry source: paper PMC5298231

Ratio of metabolite abundance, Exp3_3hr values by entry
- Tested on: erythrocytes infected with 3D7 trophozoites
- Type: cell-based, Plasmodium falciparum
- test.conditions: sheet Ratio; Exp3, 3hr
Peptide text beside a SMILES is read from it.

Reference set (5 entries):
[[record]]
compound = "CC(O)C(=O)O (centres unmarked) [Lactate]"
observed_value = 5.6661

[[record]]
compound = "CC(=O)N[C@@H](CCC(=O)O)C(=O)O [N-Acetyl-glutamate]"
observed_value = 0.2844

[[record]]
compound = "O=C(O)C1CCCCN1 (centres unmarked) [Pipecolate]"
observed_value = 1.13

[[record]]
compound = "CC(C)[C@H](NC(=O)[C@@H]1CCCN1)C(=O)N[C@@H](CCC(N)=O)C(=O)N[C@@H](C)C(=O)O [PVQA] (H-PVQA-OH)"
observed_value = 0.3152

[[record]]
compound = "CC(C)C[C@H](NC(=O)[C@H](C)NC(=O)[C@@H](N)CC(=O)O)C(=O)N[C@H](C(=O)O)[C@@H](C)O [DALT] (H-DALT-OH)"
observed_value = 0.6802


Q) Return Ratio of metabolite abundance, Exp3_3hr measured with erythrocytes infected with 3D7 trophozoites given this compound: O=C(O)CCC(=O)C(=O)O [2-Ketoglutarate]
A) 0.6868

Q) // lookup Ratio of metabolite abundance, Exp3_3hr | system=erythrocytes infected with 3D7 trophozoites | key= CC(C)[C@H](NC(=O)[C@@H](N)CCC(=O)O)C(=O)NCC(=O)NCC(=O)O [EVGG] (H-EVGG-OH)
A) 0.9676

Q) Recorded Ratio of metabolite abundance, Exp3_3hr for O=C(O)C[C@H](NC(=O)[C@@H]1CCCN1)C(=O)O [PD] (H-Pro-Asp-OH) with erythrocytes infected with 3D7 trophozoites, please?
A) 1.3146
